meta.source: patent US20080026996A1

Target: T1, human PAC1 receptor (human, UniProt P41586 21-468)
T1 sequence (looked up): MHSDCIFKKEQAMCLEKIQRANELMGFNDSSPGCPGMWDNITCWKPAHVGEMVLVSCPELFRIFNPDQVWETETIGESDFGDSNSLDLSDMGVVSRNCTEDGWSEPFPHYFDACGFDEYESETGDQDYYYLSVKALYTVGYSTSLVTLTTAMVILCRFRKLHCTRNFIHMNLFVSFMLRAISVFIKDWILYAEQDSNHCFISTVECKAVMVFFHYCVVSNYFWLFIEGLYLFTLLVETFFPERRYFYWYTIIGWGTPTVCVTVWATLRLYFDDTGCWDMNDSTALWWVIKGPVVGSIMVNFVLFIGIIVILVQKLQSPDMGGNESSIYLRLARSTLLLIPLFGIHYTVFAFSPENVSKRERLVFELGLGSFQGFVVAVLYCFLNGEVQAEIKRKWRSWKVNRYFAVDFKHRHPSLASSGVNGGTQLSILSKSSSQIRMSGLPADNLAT
Experiment: cell-based or functional assay
Where no end group is shown, it is not given here. [ ]: non-standard residue; d: D form.
For each record, write down the corresponding EC50 cAMP, DiscoveRx.
One number for each entry, in nM.

Provide reported EC50 cAMP, DiscoveRx for each item, in the same order as listed.
1. H[dS]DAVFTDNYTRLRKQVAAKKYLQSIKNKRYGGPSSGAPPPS [P48]
2. HSDWVFTDNYTRLRKQVAAKKYLQSIKNKRYGGPSSGAPPPS [P56]
3. HTDAVFTDNYTRLRKQVAAKKYLQSIKNKRYGGPSSGAPPPS [P45]
4. HSDAVFTDNYTRLRKQVAAKKYLQSIKNKRF [P34]
5. HSDAVFTDNYTRLRKQVAAKKYLQSIKNKRHGGPSSGAPPPS [P28]

1. 95.9
2. 405
3. 316
4. 80.5
5. 53.6
